Tested on: Saccharomyces cerevisiae
method description: protein stability index of tFT-peptide fusion (C-terminal peptide) (PSI (0-1 scale)); higher = more stable (slower turnover)
condition info: genetic background: wild type; temperature: 30 C
Mark label 1 for reported protein stability index of 0.7 or greater; mark label 0 for anything smaller.

Threshold query (protein stability index >= 0.7) on SWPPCPSGRGRG
label 1

What would you report for FPLFRSLLLFAP ?
label 0

What would you report for CGSLDLPHQCLL ?
label 1

What would you report for WVTLGMGGECMR ?
label 1

What would you report for PPPPVPSLLLLS ?
label 0

What would you report for GPKSPLVCSPPP ?
label 0

What would you report for IDLISRVTVVAR ?
label 0

What would you report for RGGVGLEGEGGE ?
label 0

What would you report for NKYSMQNVLKSF ?
label 0

What would you report for APGPAAPGHGYL ?
label 1

What would you report for FSKTLCGCQITC ?
label 0

What would you report for VGAEGWAVAGDM ?
label 1

What would you report for RERASCHSHTNS ?
label 0

What would you report for RGYATTALHWVS ?
label 0

What would you report for APLPPLYPPSPP ?
label 0

What would you report for CFATTCLRCKWV ?
label 0

What would you report for SSSHRPTAPSSR ?
label 0

What would you report for IVSKESNVYIIK ?
label 0

What would you report for FAWYSFYSPPPR ?
label 0

What would you report for IAEVGRFHLVVS ?
label 0

What would you report for SYGADSVSYLKT ?
label 0

What would you report for LRCLFAWVCECG ?
label 0

What would you report for PPPRFCSLPDHL ?
label 0

* * *

Tested on: Saccharomyces cerevisiae
method description: protein stability index of tFT-peptide fusion (C-terminal peptide) (PSI (0-1 scale)); higher = more stable (slower turnover)
condition info: genetic background: doa10 deletion; temperature: 30 C
experimental endpoint: protein stability index

# query: protein stability index of entry VIRSIVSAYMIC
0.255

What would you report for IIIRVTILCEQF ?
0.113

What would you report for VRGSPNVMWKSQ ?
0.194

What would you report for IDLVAFCTIFAL ?
0.295

What would you report for FWESHVLPYRLL ?
0.19

What would you report for SFFFTLLICFLF ?
0.26

What would you report for DSSRRKRLICMN ?
0.18

What would you report for FECLLFVNLLVI ?
0.153

What would you report for FILLHLLGTIRS ?
0.337

What would you report for PWAHIRTVQTYV ?
0.286

What would you report for IVFGWGVEWGRL ?
0.691

What would you report for LLAWLHTVQRVG ?
0.226

What would you report for YSGRYRTLVRCW ?
0.199

What would you report for IILAIRLLVDTL ?
0.12

What would you report for MACLRLTVYVMG ?
0.088

What would you report for ERRWKRKVIGLC ?
0.115

What would you report for FVCLCGFLQVLS ?
0.369

What would you report for FLSFARSSCLWF ?
0.676

What would you report for GGTGGAGSRGQI ?
0.644

What would you report for TPPLPTTPTLNS ?
0.722

What would you report for LWLVSLLVLWLT ?
0.239

What would you report for RIEGTLTARTAF ?
0.65

What would you report for WSWVFVVLRFGR ?
0.412

What would you report for FGLLLVLASALG ?
0.284

What would you report for GGGAGVVWVRLG ?
0.112

What would you report for GILPIYNIISRL ?
0.568

What would you report for VLLVSVFVATLL ?
0.113

What would you report for NYVFALFYMVVA ?
0.19

What would you report for FHFLFLFSLVSV ?
0.293

What would you report for GFPFLFILYFLC ?
0.111

What would you report for LFFSPRRLSPPT ?
0.688

What would you report for LDVGGRRGGEHC ?
0.583

What would you report for VHGWRPLLFHTR ?
0.674

What would you report for YFCVELSVFGFF ?
0.324

What would you report for GGYIINRWRTKN ?
0.113

What would you report for HANPGTFGPCTR ?
0.658

What would you report for WGGIASLVASAA ?
0.214

What would you report for IYFFVLRLRLCG ?
0.16

What would you report for IKSLLGCWHKHY ?
0.279

What would you report for WRGALHPTPVAA ?
0.198

What would you report for SPIGIFCFILCR ?
0.176

What would you report for VFSGGGFFLKVV ?
0.19

* * *

System: Saccharomyces cerevisiae
method description: protein stability index of tFT-peptide fusion (C-terminal peptide) (PSI (0-1 scale)); higher = more stable (slower turnover)
condition info: genetic background: wild type; temperature: 30 C
Mark y for reported protein stability index of 0.7 or greater; mark n for anything smaller.

Threshold query (protein stability index >= 0.7) on PAPPPPPTDTPP
n

What would you report for ALLPSAWPFRPP ?
n

What would you report for KGKTARDVLLLV ?
n

What would you report for YKKKKEEKNKKN ?
n

What would you report for WLPPPPPPSPSS ?
y

What would you report for HCFCFSVSSFFG ?
n

What would you report for KQKKNEENTKKT ?
y

What would you report for NRLRNAGEPTND ?
y

What would you report for FGIGWNDRLVEC ?
n

What would you report for RRTTYKKVKRKK ?
n

What would you report for VLAARVVLLRCR ?
n

What would you report for PTRTSHLCLIPP ?
n

What would you report for SALEVSPSNGSF ?
n

What would you report for GPSGGSGGGGVG ?
n

What would you report for WRGALHPTPVAA ?
n

What would you report for YALPPPPHPLSF ?
n

What would you report for VLMGAGGHSWER ?
y

What would you report for HSCFPPLSTSVL ?
y

What would you report for KKKRTKKEREKK ?
n

What would you report for GQMSKMRDRLIA ?
n

What would you report for CSNKIILMTRNN ?
n

What would you report for LSGVRFDSVFEH ?
y

What would you report for HPPASPPHSPRS ?
n

What would you report for PPLPPPPPPFPP ?
n

What would you report for YIIVSQRENRRQ ?
y

What would you report for NVRKWSREDQTG ?
n

What would you report for AKQVVGASWIVA ?
n

What would you report for ALSVSLFKDGLF ?
n

What would you report for GSEISTRGVGRR ?
n

What would you report for AVPSPVTLPTTS ?
n

What would you report for GGGAGGGSDRVV ?
y

* * *

Tested on: Saccharomyces cerevisiae
method description: protein stability index of tFT-peptide fusion in wild type (PSI (0-1 scale)); higher = more stable (slower turnover)
condition info: genetic background: wild type
experimental endpoint: protein stability index
// no unit string in output, number only

# query: protein stability index of entry LKIVRQKMNHQN
0.197

What would you report for VRGAVGGWRLCG ?
0.239

What would you report for RVTRLDAIYFQI ?
0.292

What would you report for FSMRWTFRYSVN ?
0.154

What would you report for KKHKEGQKQKIN ?
0.12

What would you report for AITLPMCPLLLV ?
0.349

What would you report for ARWRKGLWRGAS ?
0.657

What would you report for RVTRLDAIKFRI ?
0.66

What would you report for GLYMCSVGHWFR ?
0.656

What would you report for VRGAVGGWALVG ?
0.438

What would you report for RLIQPLPVQFRN ?
0.533

* * *

For each of the sequences below, state its protein stability index.
Tested on: Saccharomyces cerevisiae
method description: protein stability index of tFT-peptide fusion (C-terminal peptide) (PSI (0-1 scale)); higher = more stable (slower turnover)
condition info: genetic background: das1 deletion; temperature: 30 C
// no unit string in output, number only

# query: protein stability index of entry IYFFVLRLRLCG
0.235

What would you report for MQFVALFLVGLL ?
0.346

What would you report for GFLRTVHFLLLG ?
0.575

What would you report for RPPPAANFTRSS ?
0.665

What would you report for LCSVWVGIVLLC ?
0.23

What would you report for FVSVWVFLVSSF ?
0.248

What would you report for GLLGRCPVVVFG ?
0.273

What would you report for GGYIINRWRTKN ?
0.622

What would you report for IIVLNIGSVIFC ?
0.397

What would you report for FYPFHVFCLLIF ?
0.254

What would you report for PLRVFFLVAFCL ?
0.372

What would you report for VGVCGSSGRVGG ?
0.641

What would you report for RLIARFKILRCI ?
0.559

What would you report for VPQMLVSVCLSN ?
0.287

What would you report for IVLCVFTVDSDF ?
0.314

What would you report for ALSRFFSVFLLV ?
0.55

What would you report for YFFFLFFLLPPF ?
0.408

What would you report for FTGLCQGLWLGW ?
0.658

What would you report for LLSLPTTNLMAF ?
0.49

What would you report for FLIVLLVIFFGF ?
0.276

What would you report for PGFCFFLYYCMM ?
0.416

What would you report for FFCVLGLSFFCL ?
0.568

What would you report for GVFFHFFFLFCF ?
0.324

What would you report for SVHKYGFIKEIN ?
0.668

What would you report for EYGLLLTLLAYY ?
0.351

What would you report for IFLLLRRIIALS ?
0.411

What would you report for IHRSPLTLPLLV ?
0.461

What would you report for FLLCGVFFFFFV ?
0.288

What would you report for LFVLVLLCWMLT ?
0.373

What would you report for NVALHPGVPRKC ?
0.677

What would you report for VWRLCFPFALVR ?
0.155

What would you report for GLVCPWLIVRFV ?
0.372

What would you report for ALLMVCFGFSLV ?
0.372
